Numbers sourced from ChEMBL document CHEMBL2010677.

- assayedTarget: Peroxisome proliferator-activated receptor alpha (Homo sapiens, UniProt Q07869)
- assay: Transactivation of GAL4-fused PPARalpha LBD expressed in HepG2 cells after 20 hrs by luminescence assay
reportedEndpoint: pEC50
Interpret pEC50 as the negative base-10 log of the concentration measured in mol/L.

API: value(readout=pEC50, system=Peroxisome proliferator-activated receptor alpha (Homo sapiens, UniProt Q07869)) for record `C/C=C\CC/C=C/C=C/C(=O)NCC(C)C` 5.40

Same question for `C=CCc1ccc(OC)c(OC)c1` please. 4.33

Also need `CC=C/C=C\CC/C=C/C=C/C(=O)NCC(C)C` , thanks. 4.34

Entry to check: `COc1cc([C@@H]2OC[C@@H]3[C@H]2CO[C@H]3c2ccc3c(c2)OCO3)ccc1O` 4.27

Another molecule to look at: CC(C)(Oc1ccc(C2CC2(Cl)Cl)cc1)C(=O)O (stereo not given) [CIPROFIBRATE] 6.05

And for `CC(C)(O)C1=C[C@@H](O)[C@@](C)(O)CC1` ? 4.71

Further, for `COc1ccc([C@@H](O)[C@H](O)CO)cc1OC` ? 4.80

====

- assayedTarget: Peroxisome proliferator-activated receptor alpha (Homo sapiens, UniProt Q07869)
- Sequence (Q07869 whole entry): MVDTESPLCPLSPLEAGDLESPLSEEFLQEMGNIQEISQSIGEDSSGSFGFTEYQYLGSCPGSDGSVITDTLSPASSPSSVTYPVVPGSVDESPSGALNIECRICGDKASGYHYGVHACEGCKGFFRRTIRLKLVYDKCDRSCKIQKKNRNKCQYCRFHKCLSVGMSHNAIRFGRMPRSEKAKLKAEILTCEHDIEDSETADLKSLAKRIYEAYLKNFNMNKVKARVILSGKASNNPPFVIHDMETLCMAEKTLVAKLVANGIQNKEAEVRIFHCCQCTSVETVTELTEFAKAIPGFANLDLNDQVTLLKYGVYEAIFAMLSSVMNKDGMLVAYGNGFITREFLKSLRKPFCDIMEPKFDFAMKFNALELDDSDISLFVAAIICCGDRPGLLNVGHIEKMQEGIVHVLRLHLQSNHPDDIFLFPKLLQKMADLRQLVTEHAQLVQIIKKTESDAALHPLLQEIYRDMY
- assay: Transactivation of GAL4-fused PPARalpha LBD expressed in HepG2 cells after 20 hrs by luminescence assay
reportedEndpoint: EC50

Which EC50 reading was recorded for the compound `COc1cc([C@H]2OC[C@@H]3[C@H]2CO[C@H]3c2ccc3c(c2)OCO3)ccc1O` ? > 60 µM

Try the compound `COc1cc([C@H]2OC[C@H]3[C@@H]2CO[C@H]3c2ccc3c(c2)OCO3)cc(OC)c1O` > 60 µM

Input `COc1cc([C@H]2OC[C@H]3[C@@H]2CO[C@H]3c2ccc(O)c(OC)c2)ccc1O` > 60 µM
